Where these numbers come from: patent US20260250737A1

tested on: SmLux; assay: Computationally generated LgLux variants expressed in E. coli, tested in lysates with SmLux and substrate 1c; type: biochemical; conditions: 50 uM substrate 1c, before SmLux peptide addition
ENDPOINT: Baseline Signal (Normalized by expression)

5111 (protein) MTPEEIRANVEAFYAALASGDLEAAKALFDPGTTITLWDGTTFTSLEEFLAWFEKQFETSKDAKREIVSLEIEGDTVRVLVRLTYTKNGEVKEVDLLQLLKFV; 166.2
5274 (protein) MTPEEIRANVRAFYAALASGDWAAAEALFDPGVTITLWDGTTFTSVAEFRAWFEAQFQTSKDALREIVSLEVEGDVVRVLVRLTFVRDGRTEEVDLLQLFKFV; 125.2
5264 (protein) MTPEEIRANVEAFYAALASGDWEAARALFDPGVTITLWDGTTFTSVEEFRAWFEEQFKTSKDALREIVDLEVEGDVVRVLVRLTFVRDGKEEVVDLLQLFKFV; 127.6
5120 (protein) MTPEEIRENVLRFYEALASGDLETAKALFDPGTTITLWDGTTFTSLEEFLAWFEEQFDTSKDAKREILSLEIEGDVVRVLVRLTYVKDGEEKVVDLLQLLKWV; 148.4
